# Test system: Escherichia coli TOP10;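 also: peptides expressed intracellularly from a pBAD plasmid library in pooled LB shake-flask culture, induced with 0.3% L-arabinose, DNA abundance read by NGS, three biological replicates, DESeq2 with apeglm shrinkage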
# test.description: shrunken log2 fold change of peptide-encoding DNA abundance (4.5 h post-induction vs induction); higher = less antimicrobial activity (less host growth inhibition)
# condition.parameters: time post-induction: 4.5 h; library: site-saturation at positions 5, 18, 19, 20
shrunken log2 fold change: recorded values
recorded.metric: shrunken log2 fold change

> print(dat)
            sequence.record   number
 1  RRIRMRPPRLPRPRPRPMLWPRP     0.19
 2  RRIRGRPPRLPRPRPRPVMAPRP    0.745
 3  RRIRTRPPRLPRPRPRPTLYPRP   -0.102
 4  RRIRHRPPRLPRPRPRPSKGPRP   -0.149
 5  RRIRIRPPRLPRPRPRPRVGPRP    0.334
 6  RRIRERPPRLPRPRPRPPVKPRP   0.0254
 7  RRIRYRPPRLPRPRPRPWHIPRP   -0.103
 8  RRIRWRPPRLPRPRPRPCSVPRP   0.0151
 9  RRIRERPPRLPRPRPRPVYGPRP   -0.375
10  RRIRKRPPRLPRPRPRPHTSPRP   -0.469
11  RRIRMRPPRLPRPRPRPHFSPRP   -0.194
12  RRIRYRPPRLPRPRPRPYYAPRP   -0.634
13  RRIRMRPPRLPRPRPRPYYRPRP   0.0143
14  RRIRERPPRLPRPRPRPFDPPRP   0.0149
15  RRIRARPPRLPRPRPRPNPRPRP    0.722
16  RRIRSRPPRLPRPRPRPTNPPRP  -0.0555
17  RRIRKRPPRLPRPRPRPTKEPRP      1.6
18  RRIRVRPPRLPRPRPRPPDMPRP   -0.239
19  RRIRVRPPRLPRPRPRPFHTPRP    -1.18
20  RRIRYRPPRLPRPRPRPKPAPRP  -0.0511
21  RRIRTRPPRLPRPRPRPPSWPRP    0.345
22  RRIRHRPPRLPRPRPRPGQSPRP  -0.0176
23  RRIRIRPPRLPRPRPRPTMKPRP   -0.309
24  RRIRRRPPRLPRPRPRPMGAPRP    0.658
25  RRIRKRPPRLPRPRPRPIDDPRP   0.0889
26  RRIRERPPRLPRPRPRPGTWPRP  -0.0304
27  RRIRQRPPRLPRPRPRPWKNPRP    0.033
28  RRIRPRPPRLPRPRPRPDGKPRP     0.25
29  RRIRNRPPRLPRPRPRPVEWPRP  0.00664
30  RRIRNRPPRLPRPRPRPNQLPRP   -0.228
31  RRIRMRPPRLPRPRPRPDTTPRP    0.536
32  RRIRWRPPRLPRPRPRPDNHPRP   -0.299
33  RRIRERPPRLPRPRPRPLFFPRP   -0.225
34  RRIRRRPPRLPRPRPRPIVCPRP    0.539
35  RRIRCRPPRLPRPRPRPASSPRP    0.124
36  RRIRNRPPRLPRPRPRPIDYPRP   -0.168
37  RRIRLRPPRLPRPRPRPPNTPRP  0.00316
38  RRIRGRPPRLPRPRPRPWNAPRP    0.109
39  RRIRKRPPRLPRPRPRPESIPRP    0.235
40  RRIRVRPPRLPRPRPRPNIHPRP   -0.556
41  RRIRDRPPRLPRPRPRPRQEPRP   0.0935
42  RRIRERPPRLPRPRPRPSQIPRP    0.012
43  RRIRERPPRLPRPRPRPKMKPRP   -0.226

Data provenance: the supplement of paper PMC9112550
